Where do the numbers come from? From ChEMBL document CHEMBL1151756.

Please go through the items and note down their pEC50.
Tested on: Human immunodeficiency virus 1
MEASUREMENT_PROTOCOL: Antiviral activity against HIV1 3B in human MT2 cells assessed as inhibition of p24 antigen level after 4 days by ELISA
Format: functional, organism-based
PROTOCOL_CONDITIONS: Human immunodeficiency virus 1, 3B, MT2, 96 h
Scale for pEC50: -log10 of concentration given in mol/L; no unit attached.

**Query** Dear colleague, I am looking for the recorded pEC50 of the following molecule: `O=C(O)c1ccc(-n2cccc2)cc1O`
**Result** 4.09

**Query** Dear colleague, I am looking for the recorded pEC50 of the following molecule: `COC(=O)c1ccc(-n2c(C)ccc2C)cc1O`
**Result** 4.23

**Query** Dear colleague, I am looking for the recorded pEC50 of the following molecule: `O=C(O)c1cccc(N2C(=O)CSC2=S)c1`
**Result** 3.69
